Measurement Protocol: MAD study pharmacokinetic analysis
Type: in vivo, human
Test Parameters: male, human, plasma, oral, 400 mg, MAD, KH176 400 mg b.i.d, Day 7; read-out: AUCtau (Geomean)
Measure Name: AUC (ng·h/mL)
I only need the number, in ng·h/mL, no unit after it.

For record "Cc1c(C)c2c(c(C)c1O)CC[C@@](C)(C(=O)N[C@@H]1CCCNC1)O2.Cl" the listed AUC is 14900

###

Measurement Protocol: MAD study pharmacokinetic analysis
Type: in vivo, human
Test Parameters: male, human, plasma, oral, 400 mg, MAD, KH176 400 mg b.i.d, Day 7; read-out: tmax* (median)
Measure Name: Tmax (h)
I only need the number, in h, no unit after it.

For record "Cc1c(C)c2c(c(C)c1O)CC[C@@](C)(C(=O)N[C@@H]1CCCNC1)O2.Cl" the listed Tmax is 1.5

###

Measurement Protocol: SAD study pharmacokinetic analysis
Type: in vivo, human
Test Parameters: male, human, plasma, oral, 2000 mg, SAD, KH176 2000 mg, fasted; read-out: tmax* (median)
Measure Name: Tmax
Note to self: number, then unit, no commentary.

For record Cc1c(C)c2c(c(C)c1O)CC[C@@](C)(C(=O)N[C@@H]1CCCNC1)O2.Cl [KH176] the listed Tmax is 45 min

###

Measurement Protocol: MAD study pharmacokinetic analysis
Type: in vivo, human
Test Parameters: male, human, plasma, oral, 400 mg, MAD, KH176 400 mg b.i.d, Day 1; read-out: AUCtau (Geomean)
Description: Dose escalation to the next dose level was done after evaluation of the safety and the first 24-hour pharmacokinetic results of the previous dose. […] For mean value calculations, all values below the limit of quantification (LOQ) were set to zero. […] The PK parameters were calculated on the basis of the actual blood sampling time points relative to dosing. […] In urine, the percentage of dose excreted in urine was determined for the single- and multiple-dose administration.
Measure Name: AUC (ng·h/mL)
I only need the number, in ng·h/mL, no unit after it.

For record "Cc1c(C)c2c(c(C)c1O)CC[C@@](C)(C(=O)N[C@@H]1CCCNC1)O2.Cl" the listed AUC is 6890

###

Measurement Protocol: SAD study pharmacokinetic analysis
Format: in vivo, human
Test Parameters: male, human, plasma, oral, 300 mg, SAD, KH176 300 mg, fasted; read-out: AUClast (Geomean)
Experimental: Dose escalation to the next dose level was done after evaluation of the safety and the first 24-hour pharmacokinetic results of the previous dose. […] For mean value calculations, all values below the limit of quantification (LOQ) were set to zero. […] The PK parameters were calculated on the basis of the actual blood sampling time points relative to dosing. […] In urine, the percentage of dose excreted in urine was determined for the single- and multiple-dose administration.
Measure Name: AUC(0-t) (ng·h/mL)
I only need the number, in ng·h/mL, no unit after it.

For record Cc1c(C)c2c(c(C)c1O)CC[C@@](C)(C(=O)N[C@@H]1CCCNC1)O2.Cl [KH176] the listed AUC(0-t) is 6320

###

Measurement Protocol: MAD study pharmacokinetic analysis
Format: in vivo, human
Test Parameters: male, human, plasma, oral, 100 mg, MAD, KH176 100 mg b.i.d, Day 1; read-out: tmax* (median)
Measure Name: Tmax (h)
I only need the number, in h, no unit after it.

For record "Cc1c(C)c2c(c(C)c1O)CC[C@@](C)(C(=O)N[C@@H]1CCCNC1)O2.Cl" the listed Tmax is 1.25
